targetSystem: Acetylcholinesterase (Electrophorus electricus, Type VI-S) (Electrophorus electricus, UniProt O42275)
Sequence (O42275 24-633): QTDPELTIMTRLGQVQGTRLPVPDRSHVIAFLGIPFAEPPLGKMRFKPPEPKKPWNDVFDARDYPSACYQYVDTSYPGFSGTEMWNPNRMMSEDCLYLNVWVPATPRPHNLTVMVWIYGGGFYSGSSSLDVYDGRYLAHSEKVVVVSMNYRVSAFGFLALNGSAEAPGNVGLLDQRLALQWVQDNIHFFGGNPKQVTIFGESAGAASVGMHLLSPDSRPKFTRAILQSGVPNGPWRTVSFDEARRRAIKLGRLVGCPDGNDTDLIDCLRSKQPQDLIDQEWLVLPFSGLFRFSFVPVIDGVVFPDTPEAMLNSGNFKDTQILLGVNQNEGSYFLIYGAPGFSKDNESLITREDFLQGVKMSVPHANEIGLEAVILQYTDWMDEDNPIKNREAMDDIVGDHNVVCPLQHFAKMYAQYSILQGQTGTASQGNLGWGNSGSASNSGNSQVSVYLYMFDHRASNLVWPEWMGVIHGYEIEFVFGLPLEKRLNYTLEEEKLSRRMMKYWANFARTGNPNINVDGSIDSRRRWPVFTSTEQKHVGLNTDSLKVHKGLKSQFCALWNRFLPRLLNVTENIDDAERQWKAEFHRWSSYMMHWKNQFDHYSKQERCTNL
assay: AChE inhibition kinetics (Lineweaver–Burk / Michaelis–Menten)
Format: biochemical
assayConditions: Lineweaver–Burk plots
measure: Inhibition Type

• COc1cc2[nH]c3c(C/C=C(\C)CCC=C(C)C)c(O)ccc3c2cc1C = Competitive
• COc1cc(C)cc2c1[nH]c1ccccc12 = Competitive
• Cn1c2ccccc2c2ccc(C=O)cc21 = Competitive

* * *

targetSystem: UniProt:O42275
assay: AChE inhibition kinetics (Lineweaver–Burk / Michaelis–Menten)
Format: biochemical
assayConditions: inhibitor 10 μg/mL
measure: Vmax

Completed entries (count: 3):
- CC(C)=CCCC1(C)C=Cc2c(c(C)cc3c2[nH]c2ccccc23)O1 (stereo not shown) [Mahanimbine, mahanimbine]: 0.2098 µmol/min/mg
- Cn1c2ccccc2c2ccc(C=O)cc21 [9-Methyl-9H-carbazole-2-carbaldehyde, 9-methyl-9H-carbazole-2-carbaldehyde]: 0.3874 µmol/min/mg
- COc1cc(C)cc2c1[nH]c1ccccc12 [Murrayafoline A, murrayafoline A]: 0.3826 µmol/min/mg

Specify reported Vmax for the compound shown: COc1cc2[nH]c3c(C/C=C(\C)CCC=C(C)C)c(O)ccc3c2cc1C [Murrayanol, murrayanol] 0.3756 µmol/min/mg

* * *

// Vmax lookup, one value per entry
targetSystem: Acetylcholinesterase (Electrophorus electricus, Type VI-S) (Electrophorus electricus)
assay: AChE inhibition kinetics (Lineweaver–Burk / Michaelis–Menten)
Type: biochemical
assayConditions: inhibitor 30 μg/mL
Report the value in µmol/min/mg with no unit label.

* COc1cc(C)cc2c1[nH]c1ccccc12 | 0.3753
* Cn1c2ccccc2c2ccc(C=O)cc21 | 0.3634
* CC(C)=CCCC1(C)C=Cc2c(c(C)cc3c2[nH]c2ccccc23)O1 (stereo not shown) | 0.2231

Specify reported Vmax for the compound shown: "COc1cc2[nH]c3c(C/C=C(\C)CCC=C(C)C)c(O)ccc3c2cc1C" 0.3613

* * *

targetSystem: Acetylcholinesterase (Electrophorus electricus, Type VI-S) (Electrophorus electricus, UniProt O42275)
assay: AChE inhibition kinetics (Lineweaver–Burk / Michaelis–Menten)
Format: biochemical
assayConditions: inhibitor 30 μg/mL; read-out: Ki
measure: pKi
Note on pKi: it is the negative log10 of concentration, concentration in mol/L.

Completed entries (count: 3):
• COc1cc2[nH]c3c(C/C=C(\C)CCC=C(C)C)c(O)ccc3c2cc1C = 6.33
• Cn1c2ccccc2c2ccc(C=O)cc21 = 4.50
• CC(C)=CCCC1(C)C=Cc2c(c(C)cc3c2[nH]c2ccccc23)O1 (stereo not shown) = 6.22

Please turn your attention to the following entry.
Specify reported pKi for the compound shown: "COc1cc(C)cc2c1[nH]c1ccccc12" 4.21

* * *

targetSystem: Aβ1-42 fibrillization (Homo sapiens)
Construct: Aβ1–42 was purchased from GenicBio Inc; purchased GenicBio Inc
Sequence (P05067 672-713): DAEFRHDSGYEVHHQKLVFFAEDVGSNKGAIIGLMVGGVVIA
assay: Thioflavin T (ThT) anti-Aβ fibrillization assay
Assay type: biochemical
assayConditions: samples 500 μg/mL, 24 h, mean ± SD (n = 3)
// Aβ fibrillization inhibition lookup, one value per entry
Report the value in % with no unit label.

Completed entries (count: 2):
• COc1cc2[nH]c3c(C/C=C(\C)CCC=C(C)C)c(O)ccc3c2cc1C = 40.83
• CC(C)=CCCC1(C)C=Cc2c(c(C)cc3c2[nH]c2ccccc23)O1 (stereo not shown) = 27.68

Please turn your attention to the following entry.
Specify reported Aβ fibrillization inhibition for the compound shown: "COc1cc(C)cc2c1[nH]c1ccccc12" 33.60

* * *

targetSystem: Acetylcholinesterase (Electrophorus electricus, Type VI-S) (Electrophorus electricus, UniProt O42275)
assay: AChE inhibition kinetics (Lineweaver–Burk / Michaelis–Menten)
Type: biochemical
assayConditions: inhibitor 10 μg/mL; read-out: Ki
measure: pKi
Note on pKi: it is the negative log10 of concentration, concentration in mol/L.

Completed entries (count: 3):
- Cn1c2ccccc2c2ccc(C=O)cc21: 4.53
- COc1cc(C)cc2c1[nH]c1ccccc12: 4.23
- COc1cc2[nH]c3c(C/C=C(\C)CCC=C(C)C)c(O)ccc3c2cc1C: 6.35

Please turn your attention to the following entry.
Specify reported pKi for the molecule shown: CC(C)=CCCC1(C)C=Cc2c(c(C)cc3c2[nH]c2ccccc23)O1 (stereo not shown) 6.22
